These data points were gathered from patent US20050065140A1.

// values below are reported melting point
Please report the result as a number followed by the unit.

Check out these entries, answers already filled in.
compound: COCC(=O)N[C@H]1CC[C@H](CCN2CCC(Cc3cc(OC)ccc3Br)CC2)CC1.Cl
readout kind: melting point
result: 132 °C
--
compound: Cl.Cl.Clc1ccc(Br)c(CC2CCN(CC3CCc4ccccc4N3)CC2)c1 (stereo not shown) [Example 67]
readout kind: melting point
result: 227 °C
--
compound: COc1ccc(Br)c(CC2CCN(CC[C@H]3CC[C@H](NS(=O)(=O)N(C)C)CC3)CC2)c1.Cl [Example 47]
readout kind: melting point
result: 214 °C

Query string: What melting point value was documented for this compound, CCN(CCO)[C@H]1CC[C@H](CCN2CCC(Cc3cc(OC)ccc3Br)CC2)CC1.Cl.Cl ?
Result string: 259 °C

----------
// values below are reported melting point
Numeric answer only, unit °C assumed.

Check out these entries, answers already filled in.
compound: CCN(CC)[C@H]1CC[C@H](CCN2CCC(Cc3cc(OC(C)C)ccc3Br)CC2)CC1.Cl.Cl
value units: °C
melting point: 253
--
compound: CCN(CCOC)[C@H]1CC[C@H](CCN2CCC(Cc3cc(OC)ccc3Br)CC2)CC1.Cl.Cl
value units: °C
melting point: 78
--
compound: COc1ccc(Br)c(CC2CCN(CC[C@H]3CC[C@@H](CO)CC3)CC2)c1.Cl
value units: °C
melting point: 209

Query string: What melting point value was documented for this compound, COc1ccc(Br)c(CC2CCN(CC[C@H]3CC[C@@H](CCO)CC3)CC2)c1.Cl [Example 64] ?
Result string: 273

----------
// values below are reported melting point
Numeric answer only, unit °C assumed.

Check out these entries, answers already filled in.
molecule: CCN[C@H]1CC[C@@H](CCCN2CCC(Cc3cc(OC)ccc3Br)CC2)CC1.Cl.Cl
readout kind: melting point
quantitative result: 234
--
molecule: CCN(CC(F)(F)F)[C@H]1CC[C@H](CCN2CCC(Cc3cc(OC)ccc3Br)CC2)CC1.Cl.Cl
readout kind: melting point
quantitative result: 209
--
molecule: Cl.Cl.Fc1ccc(Br)c(CC2CCN(CC3CCc4ccccc4N3)CC2)c1 (centres unmarked)
readout kind: melting point
quantitative result: 245
--
molecule: COc1ccc(Br)c(CC2CCN(CC[C@H]3CC[C@H](NC(=O)C(F)(F)F)CC3)CC2)c1.Cl [Example 48]
readout kind: melting point
quantitative result: 230

Query string: What melting point value was documented for this molecule, CCN(CC)[C@H]1CC[C@H](CCN2CCC(Cc3cc(OC)ccc3Br)CC2)CC1.Cl.Cl ?
Result string: 242

----------
// values below are reported Rate of inhibition of [^3H]8-OH-DPAT binding (%)
# study system: serotonin 1A receptors ([^3H]8-OH-DPAT binding, hippocampus membrane preparation) (Rattus norvegicus, UniProt P19327)
# Construct: 146 μl of the hippocampus membrane preparation (80 μg/tube in terms of protein); from tissue; host or cells: rat hippocampus membrane preparation
# Sequence (P19327 1-422): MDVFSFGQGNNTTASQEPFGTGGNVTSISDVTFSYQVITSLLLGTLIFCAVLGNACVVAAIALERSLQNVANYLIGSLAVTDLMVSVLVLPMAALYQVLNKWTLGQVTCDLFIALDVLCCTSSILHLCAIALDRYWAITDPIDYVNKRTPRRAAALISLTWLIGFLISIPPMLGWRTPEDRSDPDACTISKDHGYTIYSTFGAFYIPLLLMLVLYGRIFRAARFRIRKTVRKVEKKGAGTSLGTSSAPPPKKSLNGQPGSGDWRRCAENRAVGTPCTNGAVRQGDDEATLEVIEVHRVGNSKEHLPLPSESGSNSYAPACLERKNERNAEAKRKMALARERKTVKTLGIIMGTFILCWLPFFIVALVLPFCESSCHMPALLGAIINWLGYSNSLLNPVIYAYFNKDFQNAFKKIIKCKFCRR
# test description: [^3H]8-OH-DPAT binding test (Test Example 2)
# stated conditions: [^3H]8-OH-DPAT 2 nM, test concentration not given
Numeric answer only, unit % assumed.

Check out these entries, answers already filled in.
smiles representation: CCN(CC)[C@H]1CC[C@@H](CCCN2CCC(Cc3cc(OC)ccc3Br)CC2)CC1.Cl.Cl
quantitative result: 99
//
smiles representation: CCNC(=O)N1CCC(CCN2CCC(Cc3cc(OC)ccc3Br)CC2)CC1.Cl
quantitative result: 73

Query string: What Rate of inhibition of [^3H]8-OH-DPAT binding (%) value was documented for this compound, CO[C@H]1CC[C@H](CCN2CCC(Cc3cc(OC(C)C)ccc3Br)CC2)CC1.Cl ?
Result string: 92
